Source of measurements: FireProtDB (doi:10.1016/j.bpc.2008.09.020)

B1: Cytochrome c-551, P00099 (parent)
chain: MKPYALLSLLATGTLLAQGAWAEDPEVLFKNKGCVACHAIDTKMVGPAYKDVAAKFAGQAGAEAELAQRIKNGSQGVWGPIPMPPNAVSDDEAQTLAKWVLSQK

# Variants of: B1
# assay_conditions: Pseudomonas aeruginosa (strain ATCC 15692 / DSM 22644 / CIP 104116 / JCM 14847 / LMG 12228 / 1C / PRS 101 / PAO1); pH 5; 25 °C; GdnHCl; CD; Sodium acetate 20 mM; structure 451C; whole UniProt chain shown
Catalogue of variants with associated denaturant midpoint (higher = more stable)
recorded_endpoint: denaturant midpoint (higher = more stable) (M)

mutation_descriptor: E65Y
unit_annotation: M
val: 2.12
//
mutation_descriptor: F29A V35M V100I
unit_annotation: M
val: 3.13
//
mutation_descriptor: F56Y E65Y
unit_annotation: M
val: 2.88
//
mutation_descriptor: F29A V35M
unit_annotation: M
val: 2.87
//
mutation_descriptor: V100I
unit_annotation: M
val: 2.53
//
mutation_descriptor: F56Y
unit_annotation: M
val: 2.54
//
mutation_descriptor: F56Y E65Y V100I
unit_annotation: M
val: 3.44
//
mutation_descriptor: F29A V35M F56Y E65Y V100I
unit_annotation: M
val: 4.2
//
mutation_descriptor: F29A V35M F56Y E65Y
unit_annotation: M
val: 3.78
